- target under test: T1, human G-protein coupled receptor family C group 5 member D (GPRC5D) (human, UniProt Q9NZD1 1-345)
- T1 construct: Overexpressed on 3T3 cells in the FACS assays; also called human GPRC5D; 3T3-GPRC5D
- T1 sequence (Q9NZD1 whole entry): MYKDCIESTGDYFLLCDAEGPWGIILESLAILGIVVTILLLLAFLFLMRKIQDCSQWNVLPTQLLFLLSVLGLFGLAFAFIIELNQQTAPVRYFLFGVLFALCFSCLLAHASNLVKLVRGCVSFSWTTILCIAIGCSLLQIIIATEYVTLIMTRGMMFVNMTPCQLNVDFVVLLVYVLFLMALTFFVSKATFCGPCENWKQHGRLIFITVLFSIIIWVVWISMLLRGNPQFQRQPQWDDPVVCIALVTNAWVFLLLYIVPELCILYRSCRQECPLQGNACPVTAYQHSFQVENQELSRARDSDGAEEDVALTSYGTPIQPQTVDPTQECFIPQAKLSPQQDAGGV
- protocol: flow cytometry: phage clone on 3T3-GPRC5D cells (printed 3T3-ET150), anti-M13 mouse antibody, then APC-labelled anti-mouse IgG; control without phage (A04 anti-M13+ APC mIgG) median 10.9

{"columns": ["binder", "Median, RED2-HLin"],
 "data": [
  ["ET150-168 scFv (scFv, also called ET150-18 scFv) scFv: QSVVTQPPSMSAAPGQQVTISCSGGNSNIERNYVSWYLQLPGTAPKLVIFDNDRRPSGIPDRFSGSKSGTSATLGITGLQTGDEADYYCGTWDSSLRGWVFGGGTKLTVLGSRGGGGSGGGGSGGGGSLEMAEVQLVESGGGLIQPGGSLRLSCAASGFTFSNYAMNWVRQAPGKGLEWVSTINGRGSSTIYADSVKGRFTISRDNSKNTLYLQMNSLRAEDTATYYCARYISRGLGDSWGQGTLVTV", 3180],
  ["ET150-151 scFv (scFv, also called ET150-1 scFv) scFv: QSVVTQPASVSGSPGQSITISCTGTSSDVGGYNYVSWYQQHPGKAPKLMIYDVSKRPSGVSNRFSGSKSGNTASLTISGLQAEDEADYYCSSYTSSSTLVFGGGTKLTVLGSRGGGGSGGGGSGGGGSLEMAEVQLVESGGAFVQPGGSLRLSCAASGFTFSSYAMTWVRQAPGKGLEWVSTISGRGRSTFYADSVKGRFTISRDNSKNTLYLQMNSLRAEDTAVYYCARYYHAGAFDLWGQGTLVTVSS", 3230],
  ["ET150-158 scFv (scFv, also called ET150-8 scFv) scFv: SSELTQDPAVSVALGQTVRITCQGDSLRSYYASWYQQKPGQAPVLVIYGKNNRPSGIPDRFSGSSSGNTASLTITGAQAEDEADYYCNSRDSSGNPPVVFGGGTKLTVLGSRGGGGSGGGGSGGGGSLEMAQVQLVESGGGLVHPGGSLRLSCAASGFTFRSHSMNWVRQAPGKGLEWVSSISSDSTYTYYADSVKGRFTISRDNAKNSLYLQMNSLRAEDTAVYYCARSGGQWKYYDYWGQGTLVTVSS", 3110],
  ["ET150-155 scFv (scFv, also called ET150-5 scFv) scFv: QSVLTQPPSASGTPGQRVTISCSGSRSNVGGNYVFWYQQVPGATPKLLIYRSNQRPSGVPDRFAGSKSGSSASLAISGLRSEDEADYYCATWDDSLSGFVFGTGTKVTVLGSRGGGGSGGGGSGGGGSLEMAEVQLVESGGGLVKPGGSLRLSCAASGFTFSDYYMSWIRQAPGKGLEWVSYISSSGSTIYYADSVKGRFTISRDNAKNSLYLQMNSLRAEDTAVYYCARGYGKAYDQWGQGTLVTVSS", 3220],
  ["ET150-152 scFv (scFv, also called ET150-2 scFv) scFv: QSVLTQPASVSGSPGQSLTISCTGTSNDVGAYKYVSWYQQYPGKAPKLILYDVFKRPSGVSNRFSGSKSDNTASLTISGLQAEDEADYYCFSLTSSNTYVFGTGTKVTVLGSRGGGGSGGGGSGGGGSLEMAQMQLVQSGAEVKKPGASVKVSCKASGYTFNRYAITWVRQAPGQGLEWMGWISAYNGNSHYAQKLQGRVTMTTDTSTGTAYMELRRLRSDDTAVYYCARMAYDSWGQGTLVTVSS", 2400]
]}
